Each recorded value in this set is attributed to the supplement of paper PMC10567573.

Parameter protein stability index: see the listing below.
B1: ZNF449 (parent)
chain: FQEYDTDCEVFRQRFRQFQYREAA

variants of: B1; assay: protein stability index of a GFP-peptide fusion (GPS, HEK-293T) (PSI 1-6); higher = more stable; details: c terminus: a fixed tail appended;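 note: lentivirally expressed fusions sorted by FACS into six bins by GFP to DsRed ratio, PSI derived from sequencing read proportions per bin multiplied by bin number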
value_type: protein stability index

>>> quantitative_result("T6E")
2.17
>>> quantitative_result("F1C")
2.6
>>> quantitative_result("F15R")
2.76
>>> quantitative_result("Q17P")
1.97
>>> quantitative_result("F15V")
2.98
>>> quantitative_result("E22D")
2.91
>>> quantitative_result("F15D")
3.43
>>> quantitative_result("Y20L")
2.83
>>> quantitative_result("D5I")
1.42
>>> quantitative_result("E9W")
2.02
>>> quantitative_result("Y4V")
2.41
>>> quantitative_result("T6F")
2.22
>>> quantitative_result("F18T")
3.11
>>> quantitative_result("Q19T")
2.3
>>> quantitative_result("E22M")
1.83
>>> quantitative_result("T6D")
2.62
>>> quantitative_result("Q17N")
2.44
>>> quantitative_result("R14E")
2.69
>>> quantitative_result("Y4R")
2.14
>>> quantitative_result("E9N")
2.35
>>> quantitative_result("C8S")
2.88
>>> quantitative_result("C8P")
2.7
>>> quantitative_result("R21Y")
2.54
>>> quantitative_result("A24S")
2.55
>>> quantitative_result("Y20K")
3.21
>>> quantitative_result("Q13T")
2.41
>>> quantitative_result("C8T")
2.71
>>> quantitative_result("R16L")
2.59
>>> quantitative_result("T6N")
2.67
>>> quantitative_result("E3Y")
1.68
>>> quantitative_result("C8H")
3.01
>>> quantitative_result("A23W")
1.61
>>> quantitative_result("Q13M")
1.67
>>> quantitative_result("E3K")
2.03
>>> quantitative_result("D7K")
2.02
>>> quantitative_result("F11G")
3.6
>>> quantitative_result("V10P")
2.92
>>> quantitative_result("D7S")
2.1
>>> quantitative_result("E3R")
2.54
>>> quantitative_result("F15Q")
3.01
>>> quantitative_result("E9V")
1.79
>>> quantitative_result("D7Q")
2.68
>>> quantitative_result("F15M")
2.84
>>> quantitative_result("E3D")
2.24
>>> quantitative_result("R16T")
2.28
>>> quantitative_result("A24G")
2.51
>>> quantitative_result("C8L")
2.04
>>> quantitative_result("F11W")
2.37
>>> quantitative_result("F18Y")
2.59
>>> quantitative_result("C8E")
3.42
>>> quantitative_result("Q17R")
2.31
>>> quantitative_result("Y20V")
3.27
>>> quantitative_result("R14H")
2.76
>>> quantitative_result("Q2D")
3.19
>>> quantitative_result("F11M")
3.27
>>> quantitative_result("E9S")
1.54
>>> quantitative_result("T6K")
2.05
>>> quantitative_result("D5E")
2.45
>>> quantitative_result("R12F")
2.54
>>> quantitative_result("A24M")
2.13
>>> quantitative_result("A24Q")
3.13
>>> quantitative_result("E22R")
1.65
>>> quantitative_result("Q19C")
2.02
>>> quantitative_result("Y4P")
2.28
>>> quantitative_result("Q13E")
2.51
>>> quantitative_result("R12A")
3.29
>>> quantitative_result("R12H")
2.3
>>> quantitative_result("Q17A")
2.67
>>> quantitative_result("R14P")
1.8
>>> quantitative_result("E22Q")
2.17
>>> quantitative_result("F18W")
3.11
>>> quantitative_result("Q2L")
2.33
>>> quantitative_result("T6H")
2.1
>>> quantitative_result("A23C")
2.65
>>> quantitative_result("R16E")
2.27
>>> quantitative_result("Y20Q")
3.73
>>> quantitative_result("T6Y")
2.81
>>> quantitative_result("Q13I")
1.94
>>> quantitative_result("E9G")
2.29
>>> quantitative_result("Q17I")
2.6
>>> quantitative_result("R16S")
2.21
>>> quantitative_result("E9Y")
1.27
>>> quantitative_result("F1Y")
2.25
>>> quantitative_result("R21K")
2.65
>>> quantitative_result("C8N")
2.58
>>> quantitative_result("Q19N")
2.29
>>> quantitative_result("R14S")
2.29
>>> quantitative_result("F18P")
2.43
>>> quantitative_result("Q2W")
2.67
>>> quantitative_result("F15P")
3
>>> quantitative_result("Q17F")
1.71
